- TESTED ON: human 5-hydroxytryptamine-2C (h5-HT2C) receptor (Homo sapiens, UniProt P28335)
- Construct: expressed in transfected cells; host or cells: CHO (Chinese Hamster Ovary) cells; membrane preparation
- Sequence (P28335 33-458): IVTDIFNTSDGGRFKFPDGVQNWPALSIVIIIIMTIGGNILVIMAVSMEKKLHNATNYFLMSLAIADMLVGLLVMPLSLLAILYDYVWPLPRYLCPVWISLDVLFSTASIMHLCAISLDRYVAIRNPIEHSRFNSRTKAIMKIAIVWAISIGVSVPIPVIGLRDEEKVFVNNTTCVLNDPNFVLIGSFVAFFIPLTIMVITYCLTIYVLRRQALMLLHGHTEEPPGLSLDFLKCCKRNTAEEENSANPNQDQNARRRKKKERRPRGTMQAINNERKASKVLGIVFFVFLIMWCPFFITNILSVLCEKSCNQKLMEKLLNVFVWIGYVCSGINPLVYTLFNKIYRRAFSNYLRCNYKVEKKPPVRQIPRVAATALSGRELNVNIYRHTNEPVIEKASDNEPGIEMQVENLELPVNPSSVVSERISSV
- PROTOCOL NOTES: [125I]DOI binding to membranes of CHO cells expressing h5-HT2C receptor
- STATED CONDITIONS: read-out: 5-HT2C Binding Ki avg
pKi: −log10 of the molar value. Counter-ions that a name gives are not always drawn.
Consider the following molecules and their measured pKi readings.

{"columns": ["MOLECULE", "TESTED ON", "pKi"],
 "data": [
  ["CNC[C@@H]1CCc2cccc(-c3ccccc3Cl)c2O1 [Compound 19, hydrochloride]", "human 5-hydroxytryptamine-2C (h5-HT2C) receptor (Homo sapiens, UniProt P28335)", "≥ 8.00"],
  ["CCNC[C@H]1CCc2cc(F)cc(-c3c(Cl)cccc3Cl)c2O1 [Compound 58, hydrochloride]", "human 5-hydroxytryptamine-2C (h5-HT2C) receptor (Homo sapiens, UniProt P28335)", "≥ 8.00"],
  ["CNC[C@@H]1CCc2cccc(-c3ccc(Cl)cc3Cl)c2O1 [Compound 21, hydrochloride]", "human 5-hydroxytryptamine-2C (h5-HT2C) receptor (Homo sapiens, UniProt P28335)", "< 7.30"],
  ["COc1ccccc1-c1cc(F)cc2c1O[C@@H](CN)C=C2 [Compound 65, hydrochloride]", "human 5-hydroxytryptamine-2C (h5-HT2C) receptor (Homo sapiens, UniProt P28335)", "≥ 8.00"],
  ["NC[C@H]1CCc2cc(F)cc(-c3cccnc3)c2O1 [Compound 50, hydrochloride]", "human 5-hydroxytryptamine-2C (h5-HT2C) receptor (Homo sapiens, UniProt P28335)", "7.30 to 8.00"],
  ["NC[C@@H]1CCc2cc(F)cc(-c3cc(Cl)ccc3Cl)c2O1 [Compound 55, hydrochloride]", "human 5-hydroxytryptamine-2C (h5-HT2C) receptor (Homo sapiens, UniProt P28335)", "≥ 8.00"],
  ["CNC[C@H]1CCc2cccc(-c3ccccc3Cl)c2O1 [Compound 10, hydrochloride]", "human 5-hydroxytryptamine-2C (h5-HT2C) receptor (Homo sapiens, UniProt P28335)", "≥ 8.00"]
]}

Values from patent US7365095B2
